Measurement Target: recombinant human HDAC6 (Homo sapiens (Human), UniProt Q9UBN7)
Sequence (Q9UBN7 whole entry): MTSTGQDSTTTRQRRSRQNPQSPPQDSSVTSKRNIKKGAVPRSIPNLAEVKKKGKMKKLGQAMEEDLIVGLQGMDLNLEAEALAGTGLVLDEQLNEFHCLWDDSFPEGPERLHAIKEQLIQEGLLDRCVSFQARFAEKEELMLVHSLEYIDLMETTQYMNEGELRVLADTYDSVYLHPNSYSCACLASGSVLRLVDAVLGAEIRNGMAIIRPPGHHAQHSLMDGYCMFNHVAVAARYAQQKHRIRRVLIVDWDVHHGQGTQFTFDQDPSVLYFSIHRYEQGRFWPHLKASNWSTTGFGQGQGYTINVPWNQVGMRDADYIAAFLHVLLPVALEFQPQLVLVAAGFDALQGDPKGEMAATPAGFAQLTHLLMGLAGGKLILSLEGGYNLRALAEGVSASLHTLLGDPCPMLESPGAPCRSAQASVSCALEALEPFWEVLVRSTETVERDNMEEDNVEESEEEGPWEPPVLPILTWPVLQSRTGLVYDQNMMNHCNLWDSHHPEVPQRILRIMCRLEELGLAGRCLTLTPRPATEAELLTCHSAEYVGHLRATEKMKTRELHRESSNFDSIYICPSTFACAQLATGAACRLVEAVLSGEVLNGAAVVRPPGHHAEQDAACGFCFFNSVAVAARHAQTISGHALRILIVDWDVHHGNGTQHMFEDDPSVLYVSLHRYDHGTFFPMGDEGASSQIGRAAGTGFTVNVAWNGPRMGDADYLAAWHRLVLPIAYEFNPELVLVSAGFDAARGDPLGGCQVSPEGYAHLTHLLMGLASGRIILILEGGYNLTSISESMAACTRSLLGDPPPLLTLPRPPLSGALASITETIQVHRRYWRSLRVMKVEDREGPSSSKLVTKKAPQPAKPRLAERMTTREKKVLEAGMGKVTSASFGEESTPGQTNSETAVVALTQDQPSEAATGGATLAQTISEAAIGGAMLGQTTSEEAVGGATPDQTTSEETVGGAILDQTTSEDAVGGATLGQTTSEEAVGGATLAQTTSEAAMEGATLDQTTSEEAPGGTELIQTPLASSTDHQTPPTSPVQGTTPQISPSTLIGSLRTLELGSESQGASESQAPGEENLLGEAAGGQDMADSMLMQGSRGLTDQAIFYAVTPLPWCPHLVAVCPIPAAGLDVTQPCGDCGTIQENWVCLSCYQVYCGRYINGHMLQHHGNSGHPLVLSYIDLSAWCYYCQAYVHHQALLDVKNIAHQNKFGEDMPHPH
Protocol Text: Enzymatic screening, HDAC6 inhibition (fluorogenic FdL_G substrate)
Threshold 200 nM. IC50 below it: MET. IC50 at it or above: NOT MET.

Known results for compounds:
[[record]]
smiles_entry = "FC(F)c1nnc(-c2ccc(Cn3nnnc3-c3csc4ccccc34)cc2)o1"
cat = "NOT MET"

[[record]]
smiles_entry = "Fc1cc(Cn2cnc(-c3ccc(NC4=NCCN4)cc3)c2)ccc1-c1nnc(C(F)F)o1"
cat = "MET"

[[record]]
smiles_entry = "CN(Cc1ccncc1)Cc1ccc(-c2nnn(Cc3ccc(-c4nnc(C(F)F)o4)cc3)n2)cc1"
cat = "MET"


(Q) Take the compound CC1(C)CN(c2cccc(-c3cn(Cc4c(F)cc(-c5nnc(C(F)F)o5)cc4F)nn3)c2)C1=O and say whether its IC50 is less than 200 nM.
(A) MET

(Q) Then Cn1c(N)nc2cc(-c3cn(Cc4ccc(-c5nnc(C(F)F)o5)cn4)cn3)ccc21 ?
(A) MET

(Q) // query: O=C(Nc1cc(-c2nnn(Cc3ccc(-c4nnc(C(F)F)o4)cc3)n2)ccc1Sc1ccccc1)N1CCOCC1
(A) NOT MET

(Q) Similarly, Cn1c(=N)n(C)c2cc(-c3cn(Cc4ccc(-c5nnc(C(F)F)o5)cc4)nn3)ccc21 ?
(A) MET

(Q) Field entry: O=C(c1cccc(-c2nnn(Cc3ccc(-c4nnc(C(F)F)o4)c(F)c3)n2)c1)N1CCOCC1
(A) MET
